test system: UO-31; test: NCI tumour cell line growth inhibition, 48 h
Calls of active or inactive are those of the source. Cut-off read from the data, not from the text of the source: active = GI50 up to about 1.1 µM and inactive = higher.
// GI50 lookup, one value per entry

# molecule, GI50
rows = [
    ("CC([C@H]1CCC2C3CCC4CC5(CC[C@]4(C)C3CC[C@@]21C)c1ccccc1C(=O)N5C)N(C)C (some centres undefined)", "13 µM (inactive)"),
    ("CC1(C)O[C@@H](CP(c2ccc3ccccc3c2)c2ccc3ccccc3c2)[C@H](CP(c2ccc3ccccc3c2)c2ccc3ccccc3c2)O1", "> 100 µM (inactive)"),
    ("O=C(O)c1c(CC(Cc2ccc3c(c2)CCCC3)C(=O)O)ccc2c1CCCC2 (centres undefined)", "> 100 µM (inactive)"),
    ("CC(=O)OCC1OC(n2c(=S)n(-c3ccccc3)c(=O)c3cc(Br)ccc32)C(OC(C)=O)C(OC(C)=O)C1OC(C)=O (centres undefined)", "> 100 µM (inactive)"),
]

====

system: BT-549; assay: NCI tumour cell line growth inhibition, 48 h
Calls of active or inactive are those of the source. No stated cut-off is given here; in the data, active = GI50 up to about 1.1 µM and inactive = higher.
Outcomes: Yes (active), No (inactive)

# compound, category_label
data = [
    ("CCN(CC)c1ccc(/C=C/C(=O)c2cc(C(C)(C)C)c(O)c(C(C)(C)C)c2)cc1", "No"),
    ("C[C@]12CC[C@@H]3c4ccc(OP(=O)(O)O)cc4CC[C@H]3[C@@H]1CCC2=O", "No"),
    ("O=c1[nH]nc(-c2cccc([N+](=O)[O-])c2)[nH]1", "No"),
    ("O=C(O)c1ccccc1SCc1cccc2c(=O)c3ccc(Cl)cc3oc12", "No"),
    ("CCCCCC(/C=C/C1CCC(=O)C1)OCOCCOC (stereo not given)", "No"),
    ("O=C(c1ccc(O)c([N+](=O)[O-])c1)c1ccc(O)c([N+](=O)[O-])c1", "No"),
    ("N#C[C@@H](c1nc2ccccc2s1)c1ncccc1[N+](=O)[O-]", "No"),
    ("Cc1ccc(NC(=S)C#N)c(C)c1", "No"),
    ("Clc1ccc(N/N=C(\\c2ccccc2)c2ccccn2)nc1", "No"),
    ("COc1cc(C2C3=C(COC3=O)Oc3cc4c(cc32)OCO4)cc(OC)c1O (stereo not given)", "No"),
    ("CSC1=N/C(=C\\c2ccco2)C(=O)N1CN1CCOCC1", "No"),
    ("OC(c1ccc(F)cc1)(c1ccc(F)cc1)C1CC1", "No"),
    ("O=C1C=CC2(C=C1)O[C@H](CCc1ccccc1)[C@@H](CCc1ccccc1)O2", "No"),
    ("CCCCCc1cc2cc3c(c(O)c2c(=O)[nH]1)C1(CC3)C(=O)c2c(O)c3c(c(O)c2C1=O)C(=O)C(OC)=CC3=O (stereo not given)", "Yes"),
    ("CC(C)C[C@H](NC(=O)[C@H](Cc1ccccc1)NC(=O)c1cnccn1)B(O)O [BORTEZOMIB]", "Yes"),
    ("CC(=O)Oc1cc2c(cc1OC(C)=O)[C@H]1CC[C@]3(C)[C@@H](OC(C)=O)CC[C@H]3[C@@H]1CC2", "No"),
    ("CO[C@H]1C[C@H](n2cc(C)c(=O)[nH]c2=O)O[C@@H]1CO", "No"),
    ("Cn1c(COC(=O)NC2CCCCC2)c(COC(=O)NC2CCCCC2)c2ccc3cc(Cl)c(Cl)cc3c21", "No"),
    ("COc1cc2c(cc1OC)C1=Cc3cc(OC)c(OC)cc3C(C)N1C=C2 (stereo not given)", "No"),
    ("Cc1cc(N(CCC#N)CCC#N)ccc1C(/N=N/c1ccc(Cl)cc1)=N\\NC(=O)c1cc(Cl)ccc1O", "No"),
]

====

// GI50 lookup, one value per entry
system: A498; experiment: NCI tumour cell line growth inhibition, 48 h
Structures can show the parent of a compound that is named as a salt. Calls of active or inactive are those of the source. Cut-off read from the data, not from the text of the source: active = GI50 up to about 1.1 µM and inactive = higher.

# compound, GI50
data = [
    ("O=C(/C=C/c1ccccc1)Oc1ccc(C(=O)/C=C/c2ccc(Cl)cc2)cc1", "> 100 µM (inactive)"),
    ("CC(=O)/C(=C/NC(=S)c1cccnc1)C(=O)Nc1ccccc1C", "> 100 µM (inactive)"),
    ("CC(C)C(C/C=C1/CC(CO)(COC(=O)CC(C(C)C)C(C)C)OC1=O)C(C)C (centres undefined)", "2.98 µM (inactive)"),
    ("Cc1cccc(C)c1NC(=O)C(=O)Cc1nc2ccccc2s1", "> 100 µM (inactive)"),
    ("O=C(O)C[n+]1cn(NC(=O)Cc2ccccc2)cn1", "> 10 µM (inactive)"),
    ("C=C1C[C@@H]2CC[C@@]34C[C@H]5O[C@H]6[C@@H](O3)[C@H]3O[C@H](CC[C@@H]3O[C@H]6[C@H]5O4)CC(=O)C[C@@H]3[C@@H](OC)[C@@H](C[C@H](O)CN)O[C@H]3C[C@H]3O[C@@H](CC[C@@H]1O2)C[C@@H](C)C3=C [ERIBULIN MESYLATE]", "0.00434 µM (active)"),
    ("CN(C)c1ccc(/C=C(\\NC(=O)c2ccccc2)C(=O)NC(CCC(=O)O)C(=O)O)cc1 (centres undefined)", "> 100 µM (inactive)"),
    ("CC(=O)NC(CS)C(=O)O (centres undefined)", "3970 µM (inactive)"),
    ("Nc1nc(SCc2ccccc2)c2ncn(Cc3ccccc3)c2n1", "> 44.9 µM (inactive)"),
    ("CCCCOC(=O)C(O)Cc1ccoc1 (centres undefined)", "> 100 µM (inactive)"),
    ("O=C(O)c1c(CC(Cc2ccc3c(c2)CCCC3)C(=O)O)ccc2c1CCCC2 (centres undefined)", "> 100 µM (inactive)"),
    ("OC(c1ccc(F)cc1)(c1ccc(F)cc1)C1CC1", "29.2 µM (inactive)"),
    ("COC(=O)C12OCC34C(CC5C(C)C6=CC(=O)OC6=CC5(C)C3C(O)C1O)OC(=O)C(O)C24 (centres undefined)", "0.544 µM (active)"),
    ("O=S(=O)(/C=C/c1ccc(Cl)cc1Cl)Cc1ccccc1CS(=O)(=O)/C=C/c1ccc(Cl)cc1Cl", "33.5 µM (inactive)"),
    ("Clc1ccc(OCCSCCCCCCCCCCSCCOc2ccc(Cl)cc2)cc1", "> 100 µM (inactive)"),
    ("CNC1C(=O)C(C)C(O)(C(CC(C)C(O)/C=C/C=C/CNC(=O)C(C)(C)C(O)\\C(C)=C/C=C\\C=C\\Cc2cnc(C)o2)OC)C12C(=O)OC2C.CNC1C(=O)C(C)C(O)(C(CC(C)C(O)/C=C/C=C/CNC(=O)C(C)(C)C(O)\\C(C)=C/C=C\\C=C\\Cc2cnc(C)o2)OC)C12C(=O)OC2COC (centres undefined)", "28.4 µM (inactive)"),
    ("N=C(N)N/N=C/c1c(-c2ccc(Cl)cc2)nc2sccn12", "3.11 µM (inactive)"),
    ("O=C1c2ccccc2C(=O)N1CCCCNOCCCN1C(=O)c2ccccc2C1=O", "> 100 µM (inactive)"),
    ("c1ccc(-c2sc(-c3ccccc3)c3c2C2CCC3C2)cc1", "53.3 µM (inactive)"),
    ("Cc1cnc(-n2c(C)nc3cc(Cl)ccc3c2=O)s1", "20.4 µM (inactive)"),
    ("c1ccc(C2[C@@H]3CCCc4ccccc4C3=NN2c2ccccc2)cc1 (some centres undefined)", "> 100 µM (inactive)"),
    ("O=C(Nc1ccc(F)cc1)C(=O)C(C(=O)c1ccccc1F)C1OC(=O)c2ccccc21 (centres undefined)", "> 100 µM (inactive)"),
    ("COC(=O)C(C(=O)C(=O)Nc1cccc(O)c1)c1nc2ccc(Cl)cc2nc1O (centres undefined)", "> 100 µM (inactive)"),
    ("CCOC(=O)C1(C(=O)OCC)C[C@@H](C)[C@@H](O)C1", "> 100 µM (inactive)"),
    ("C=C(Cl)C(=C)CCC(Cl)C(C)(C)Cl (centres undefined)", "> 100 µM (inactive)"),
    ("CC(C)C(=O)N1C(=O)O[C@@H](c2ccccc2)[C@H]1C", "> 100 µM (inactive)"),
    ("CCN(CC)CCOC(c1cc(OC)ccc1OC)c1ccc2n1-c1ccccc1OC2 (centres undefined)", "11.8 µM (inactive)"),
    ("O=S(O)CCCCSSCCCCS(=O)(=O)S", "> 100 µM (inactive)"),
    ("N#Cc1c(NC(=O)CCC(=O)O)ccc2ccccc12", "> 100 µM (inactive)"),
    ("O=C(O)CCCSc1nc2ccccc2s1", "> 100 µM (inactive)"),
    ("CC(C)(C)c1nc2c(o1)C(=O)c1ccccc1C2=O", "6.21 µM (inactive)"),
    ("COCOCC1CCCN1CN1CCC[C@H]1COCOC (some centres undefined)", "> 100 µM (inactive)"),
    ("CC(C)C[C@H](NC(=O)[C@H](Cc1ccccc1)NC(=O)c1cnccn1)B(O)O", "< 0.01 µM (active)"),
    ("COC(=O)CCC1CCc2c(OC)ccc(OC)c2C1=O (centres undefined)", "> 10 µM (inactive)"),
    ("c1ccc(Nc2nnc(CCCCCCCCc3nnc(Nc4ccccc4)o3)o2)cc1", "> 100 µM (inactive)"),
    ("CC(C)(C)COS(=O)OCC(C)(C)C", "> 100 µM (inactive)"),
    ("S=C(Nc1cccc(C2(N3CCCCC3)CCCCC2)c1)Nc1cccc(C2(N3CCCCC3)CCCCC2)c1", "18.9 µM (inactive)"),
    ("CC1CNC(c2ccc(COc3ccc(C4=NC(C)CN4)cc3)cc2)=N1 (centres undefined)", "> 100 µM (inactive)"),
    ("C[C@]12CCC(=O)C=C1CC[C@@H]1C2CC[C@@]2(C)C1CC[C@@H]2OC(=O)C12OC1CCC2=O (some centres undefined)", "18 µM (inactive)"),
]

Reference source for all entries: ChEMBL document CHEMBL1201862
